- EXPERIMENT_DESCRIPTION: Hydrazone reaction rates of competitors with model reactants, UV spectroscopy
- Type: physicochemical
- CONDITION_NOTES: 50 μM competitor and 50 μM model reactant (BZA or HydAA), saline solution, 25° C.; mean (standard deviation), n = 4
# k1 (forward reaction rate) listing for each entry below

[
  {
    "COMPOUND": "NNCC(=O)O [Hydrazinoacetic acid, hydrazinoacetic acid]",
    "VALUE_OBSERVED": "0.276 (0.070) M^−1 s^−1"
  },
  {
    "COMPOUND": "NNCCO [Hydrazinoethanol, 2-hydrazinoethanol]",
    "VALUE_OBSERVED": "0.690 (0.301) M^−1 s^−1"
  },
  {
    "COMPOUND": "CCCC=O",
    "VALUE_OBSERVED": "59.9 (5.49) M^−1 s^−1"
  },
  {
    "COMPOUND": "O=Cc1ccccc1",
    "VALUE_OBSERVED": "0.276 (0.070) M^−1 s^−1"
  }
]

Turning now to a further compound:
Q) Give the measured k1 (forward reaction rate) for NNc1ccc(C(=O)O)cc1 [Hydrazinobenzoic acid, 4-hydrazinobenzoic acid]
A) 2.10 (0.40) M^−1 s^−1
